Would you mind telling me the reported INHIBITION of each entry?
# Test system: Plasmodium berghei
# assay remarks: Screen against P. berghei liver stage (PbLuc), transformed with Luciferase, at 10uM
# Type: functional, HepG2
# details: tested at 10 uM
Out of some 69,000 compounds screened, about 8,600 (12%) showed an effect of 50% or more. This is one part of a sample in which strong results are shown more often than they occur.
Give bare numbers, in %.

Record excerpt, results attached:
> print(dat)
                                    compound  assay.value
 1     CC(C)(NCC(=O)NCC1CC1)c1ccc2c(c1)OCCO2        -36.3
 2  Cn1c2ccc(F)cc2c2ncn(CCCN(CCO)CCO)c(=O)c21         24.7
 3  Cc1cc(C)n(CCC(=O)N2CCCC(c3cc(C(N)=O)[nH]n3)C2)n1 (configuration not stated)         16.8
 4  Cc1cnn(C2CCCN(C(=O)c3cc(Cl)c4c(c3)OCO4)C2)c1 (configuration not stated)         37.9
 5  CCc1cnc(N2C[C@H](OCc3csc(C)n3)[C@H]3COC[C@H]32)nc1         40.8
 6  CCc1nc2n(n1)CC(NCc1cnc(-c3ccccc3)nc1)CC2 (configuration not stated)         31.9
 7     O=c1cc2c(nn1CN1CCN(c3ccccc3)CC1)CCCC2         38.9
 8  CN(CCc1ccccn1)C1CCCN(Cc2noc(C3CC3)n2)C1 (configuration not stated)         24.1
 9  CCNC(=O)N1CCC(c2ccccc2)C1 (configuration not stated)          -31
10  Cc1ccc(-c2nc(CNC3CCc4ncnn4C3)co2)cc1 (configuration not stated)         12.7

Provide INHIBITION values for the following items, in order.
1. CC(=O)N1CCC(c2cncc(Cl)n2)CC1
2. Cc1nc(C2CCCN(C(=O)Cn3ccccc3=O)C2)sc1C (configuration not stated)

Ans:
1: 1.62; 2: 25.6

###

# System: Plasmodium berghei
# assay remarks: Screen against P. berghei liver stage (PbLuc), transformed with Luciferase, at 10uM
# Type: functional, HepG2
# details: tested at 10 uM
Screen size: about 69,000 compounds; about 8,600 (12%) showed an effect of 50% or more. The full list was thinned out, with strong results kept by preference.
Would you mind telling me the reported INHIBITION of each entry?
Answers are plain numbers, in %.

Record excerpt, results attached:
> print(dat)
                            compound.smiles  assay.value
1  O=C1C[C@H]2[C@@H](CCN2C(=O)Cc2ccsc2)N1Cc1cccnc1         62.9
2  CCN1CCn2c(-c3cccc(F)c3)cnc2C12CCN(C(C)=O)CC2         85.2
3  CC(=O)N1CCC2(CC1)c1ncc(-c3ccccc3)n1CCN2C           43
4  Cc1ccc(N2CC[C@@H]3[C@@H]2CCN3Cc2ccsc2)nn1         51.2

Could you now look at the following molecule, please?
Q: Consider the molecule shown here: `Cc1ccc(N2CC[C@@H]3[C@@H]2CCN3C(=O)c2cscn2)nn1` What is its recorded INHIBITION?
Ans: 18.5

###

# Tested on: Plasmodium berghei
# assay remarks: Screen against P. berghei liver stage (PbLuc), transformed with Luciferase, at 10uM
# Type: functional, HepG2
# details: tested at 10 uM
Screen size: about 69,000 compounds; about 8,600 (12%) showed an effect of 50% or more. Only a selection was taken, and strong results are over-represented in it overall.
Assign condition met whenever INHIBITION does not fall below 30%; assign condition not met whenever it does.

> print(dat)
                                   compound          class
1  CCc1cnc(CN(C)C2CCN(CCn3cc(C#N)cn3)C2)o1 (stereo unspecified)  condition met

Q: Entry `CCS(=O)(=O)N1CCC2(CCN(Cc3cccc(OC)c3)CC2)CC1` : is its INHIBITION no less than 30%?
Ans: condition met

Q: Entry CC(C)c1cnc(CN(C)C2CCN(CCn3cc(C#N)cn3)C2)o1 (stereo unspecified) : is its INHIBITION no less than 30%?
Ans: condition not met

Q: Entry Cc1cnc(CN(C)C2CCN(CC(=O)Nc3nccs3)C2)o1 (stereo unspecified) : is its INHIBITION no less than 30%?
Ans: condition not met
